# subject_of_test: T1, human G-protein-coupled receptor family C group 5 member D (GPRC5D) (human, UniProt Q9NZD1 1-345)
# T1 construct: whole, on cells; also called human GPRC5D protein
# experimental_protocol: FACS, NCI-H929 cells
Listed here are binders together with their documented Top.
Write the value as a bare number.

These recorded examples may help you get a feel for the data.
6-H4L3 (antibody, V domains shown, humanized 6G10D9, VH v4 x VL v3) VH: QVQLVQSGAEVAKPGASVKMSCKASGYTFTTYTMHWVKQAPGQGLEWLGYINPSSGYTNYNQKFKDRVTLTADTSTSTVYMELSSLRSEDTAVYYCASLRSRGYFDYWGQGTLLTVSS VL: DIQMTQSPSFLSTSVGDRVTITCKASQNVGTAVVWYQQKPGKSPKLLIYSASNRYTGVPSRFSGSGSGTEFTLTISSMQPEDFATFFCQQYSSYPYTFGQGTKLEIK
29000
34-XI (antibody, V domains shown, also called 34D3H1 (chimeric)) VH: EVHLVESGGDLVKPGGSLKLSCAASGFTFSSYGMSWVRQTPDKRLEWVATISSGGSYTYYPDSVKGRFTISRDNAKNTLNLQMSSLKSEDTAMYYCARQGGDAMDYWGQGTSVTVSS VL: DIVLTQSPATLSVTPGDSVSLSCRASQSINNNLHWYQQKSHESPRLLIKYASQSISGIPSRFSGSGSGTDFTLSINSVETEDFGMYFCQQSNSRLTFGAGTKLELK
18100
58-H1L1 (antibody, V domains shown, humanized 58F9G10, VH v1 x VL v1) VH: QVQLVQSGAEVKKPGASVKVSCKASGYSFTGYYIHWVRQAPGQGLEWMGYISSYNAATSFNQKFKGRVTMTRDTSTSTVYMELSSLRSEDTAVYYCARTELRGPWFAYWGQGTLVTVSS VL: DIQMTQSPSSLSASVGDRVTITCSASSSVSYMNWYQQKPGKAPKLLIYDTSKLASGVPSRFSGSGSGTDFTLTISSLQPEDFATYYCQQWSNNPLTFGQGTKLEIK
13500
37B9C4-XI (antibody, V domains shown, also called 37B9C4 (chimeric); 37-XI) VH: EVNLEESGGGLVQPGGSMKLSCVASGFTFSDYWMNWVRQSPEKGLEWVAEIRLKSNNYATHYAESVKGRFTISRDDSKSSVYLQMNNLRAEDTGIYYCTRPLLWFRRYYAMDYWGQGTSVTVSS VL: DIQMTQTTSSLSASLGDRITISCSASQGISNYLNWYQQKPDGTVKLLIYYTSSLHSGVPSRFSGSGSGTDYSLTISNLEPADIATYYCQQYSKLPFTFGSGTKLEIK
13800
6G10D9-XI (antibody, V domains shown, also called 6G10D9 (chimeric); 6G1009-X1) VH: QVQLQQSGAELARPGASVKMSCKASGYTFTTYTMHWVKQRPGQGLEWLGYINPSSGYTNYNQKFKDKATLTAGKSSSTAYMQLSSLTSEDSAVYYCASLRSRGYFDYWGQGTTLTVSS VL: DIVMTQSQTFMSTSVGDRVRITCKASQNVGTAVVWYQQKTGQSPRLLIYSASNRYTGVPDRFTGSGSGTDFTLTISNMQSEDLADFFCQQYSSYPYTFGGGTKLEIK
13800
58-H3L1 (antibody, V domains shown, humanized 58F9G10, VH v3 x VL v1) VH: QVQLVQSGAEVKKPGASVKVSCKASGYSFTGYYIHWVKQAPGQGLEWIGYISSYNAATSFNQKFKGRVTFTVDTSTSTVYMEFSSLRSEDTAVYYCARTELRGPWFAYWGQGTLVTVSS VL: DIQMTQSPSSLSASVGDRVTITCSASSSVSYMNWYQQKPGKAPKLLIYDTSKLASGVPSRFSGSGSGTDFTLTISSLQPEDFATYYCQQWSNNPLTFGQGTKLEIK
13900

Incoming: I would be grateful if you could share the reported Top for 37-H1L1 (antibody, V domains shown, humanized 37B9C4, VH v1 x VL v1; also called 37B9C4 (H1L1)) VH: EVQLVESGGGLVQPGGSLRLSCAASGFTFSDYWMNWVRQAPGKGLEWVAEIRLKSNNYATHYAESVKGRFTISRDNAKNSLYLQMNSLRAEDTAVYYCARPLLWFRRYYAMDYWGQGTLVTVSS VL: DIQMTQSPSSLSASVGDRVTITCSASQGISNYLNWYQQKPGKAPKLLIYYTSSLHSGVPSRFSGSGSGTDFTLTISSLQPEDFATYYCQQYSKLPFTFGQGTKLEIK .
Outgoing: 13500

Incoming: I would be grateful if you could share the reported Top for 6-H3L3 (antibody, V domains shown, humanized 6G10D9, VH v3 x VL v3) VH: QVQLVQSGAEVAKPGASVKVSCKASGYTFTTYTMHWVKQAPGQGLEWLGYINPSSGYTNYNQKFKDRVTMTADTSTSTVYMELSSLRSEDTAVYYCASLRSRGYFDYWGQGTLVTVSS VL: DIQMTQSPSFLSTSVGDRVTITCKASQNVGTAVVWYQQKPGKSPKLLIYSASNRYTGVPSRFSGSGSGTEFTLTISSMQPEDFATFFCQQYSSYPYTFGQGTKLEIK .
Outgoing: 21900

Incoming: I would be grateful if you could share the reported Top for 58F9G10-XI (antibody, V domains shown, also called 58F9G10 (chimeric); 58-XI) VH: EVQLQQSGPELVKTGASVKISCKASGYSFTGYYIHWVKQSHGKSLEWIGYISCYNGATSFNQKFKGKATFTVDTSSSTAYMQFNSLTSEDSAVYYCARTELRGPWFAYWGQGTLVTVSA VL: QTVLTQSPAIMSASPGEKVTMTCSASSSVSYMNWYQQKSGTSPKRWIYDTSKLASGVPARFSGSGSGTSYSLTISSMEAEDAATYYCQQWSNNPLTFGAGTKLELK .
Outgoing: 14700

Incoming: I would be grateful if you could share the reported Top for 34-H1L1 (antibody, V domains shown, humanized 34D3H1, VH v1 x VL v1) VH: EVQLVESGGGLVKPGGSLRLSCAASGFTFSSYGMSWVRQAPGKGLEWVSTISSGGSYTYYPDSVKGRFTISRDNAKNSLYLQMNSLRAEDTAVYYCARQGGDAMDYWGQGTLVTVSS VL: DIQMTQSPSSLSASVGDRVTITCRASQSINNNLHWYQQKPGKAPKLLIYYASQSISGVPSRFSGSGSGTDFTLTISSLQPEDFATYYCQQSNSRLTFGGGTKVEIK .
Outgoing: 17900
